IC50: recorded values
Target: Dual specificity mitogen-activated protein kinase kinase; MEK1/2 (Homo sapiens, UniProt P36507+Q02750)
Experiment: Ability to antagonise AP-1 transcriptional activity
Type: functional
The answer should read as a number with its unit following.

N#CC(=C(/N)Sc1ccccc1Br)/C(C#N)=C(\N)Sc1ccccc1Br; 7.9 µM

Query :: So what's the measured IC50 for this one? N#CC(=C(/N)Sc1ccccc1Cl)/C(C#N)=C(\N)Sc1ccccc1Cl
Result :: 6.6 µM

Query :: Do the same for N#Cc1c(N)[nH]c(Sc2ccccc2N)c1C#N please
Result :: 26.2 µM

Query :: Do the same for N#CC(=C(/N)Sc1ccccc1F)/C(C#N)=C(\N)Sc1ccccc1F please
Result :: 7.6 µM

Query :: Do the same for N#Cc1c(NS(=O)(=O)c2ccccc2)[nH]c(Sc2ccc3ccccc3c2)c1C#N please
Result :: 8 µM

Query :: Do the same for N#CC(=C(/N)Sc1c(Cl)cccc1Cl)/C(C#N)=C(\N)Sc1c(Cl)cccc1Cl please
Result :: 6.5 µM
